# assay_details: clinical
# condition_details: human, in vivo, iv, mean (apparent terminal elimination) half-life, day 1
Peptide text beside a SMILES is read from it.
quantity_measured: half-life (h)

{"compound": "CC(=O)N[C@H](C(=O)N[C@H](CO)C(=O)N[C@H]1CCNC(=O)[C@H]([C@@H](C)O)NC(=O)[C@H](CCN)NC(=O)[C@H](CCN)NC(=O)[C@H](CC(C)C)NC(=O)[C@@H](Cc2ccccc2)NC(=O)[C@H](CCN)NC1=O)[C@@H](C)O [SPR741] (HELM PEPTIDE1{[ac].T.[dS].[Dab].[Dab].[dF].L.[Dab].[Dab].T}$PEPTIDE1,PEPTIDE1,4:R3-10:R2$$$V2.0)", "experimental_value": 2.2}

* * *

# assay_details: clinical
# Set-up: species or system human
# condition_details: human, in vivo, iv, 50 mg
Peptide text beside a SMILES is read from it.
quantity_measured: half-life (h)

{"compound": "CC(=O)N[C@H](C(=O)N[C@H](CO)C(=O)N[C@H]1CCNC(=O)[C@H]([C@@H](C)O)NC(=O)[C@H](CCN)NC(=O)[C@H](CCN)NC(=O)[C@H](CC(C)C)NC(=O)[C@@H](Cc2ccccc2)NC(=O)[C@H](CCN)NC1=O)[C@@H](C)O [SPR741] (HELM PEPTIDE1{[ac].T.[dS].[Dab].[Dab].[dF].L.[Dab].[Dab].T}$PEPTIDE1,PEPTIDE1,4:R3-10:R2$$$V2.0)", "display_unit": "h", "experimental_value": 2.48}

* * *

# assay_details: clinical
# Set-up: species or system human
# condition_details: human, in vivo, iv, 100 mg
Peptide text beside a SMILES is read from it.
quantity_measured: Cmax (ng/mL)

{"molecule": "CC(=O)N[C@H](C(=O)N[C@H](CO)C(=O)N[C@H]1CCNC(=O)[C@H]([C@@H](C)O)NC(=O)[C@H](CCN)NC(=O)[C@H](CCN)NC(=O)[C@H](CC(C)C)NC(=O)[C@@H](Cc2ccccc2)NC(=O)[C@H](CCN)NC1=O)[C@@H](C)O [SPR741] (HELM PEPTIDE1{[ac].T.[dS].[Dab].[Dab].[dF].L.[Dab].[Dab].T}$PEPTIDE1,PEPTIDE1,4:R3-10:R2$$$V2.0)", "quantity_measured": "Cmax", "display_unit": "ng/mL", "experimental_value": 6010}

* * *

# assay_details: clinical
# Parameters: species or system human
# condition_details: human, in vivo, iv, 600 mg
Peptide text beside a SMILES is read from it.

{"compound": "CC(=O)N[C@H](C(=O)N[C@H](CO)C(=O)N[C@H]1CCNC(=O)[C@H]([C@@H](C)O)NC(=O)[C@H](CCN)NC(=O)[C@H](CCN)NC(=O)[C@H](CC(C)C)NC(=O)[C@@H](Cc2ccccc2)NC(=O)[C@H](CCN)NC1=O)[C@@H](C)O [SPR741] (HELM PEPTIDE1{[ac].T.[dS].[Dab].[Dab].[dF].L.[Dab].[Dab].T}$PEPTIDE1,PEPTIDE1,4:R3-10:R2$$$V2.0)", "half-life, h": 3.76}

* * *

# assay_details: clinical
# condition_details: human, in vivo, iv, 400 mg, AUC0-τ, geometric LSM, reference treatment
Peptide text beside a SMILES is read from it.

{"molecule": "CC(=O)N[C@H](C(=O)N[C@H](CO)C(=O)N[C@H]1CCNC(=O)[C@H]([C@@H](C)O)NC(=O)[C@H](CCN)NC(=O)[C@H](CCN)NC(=O)[C@H](CC(C)C)NC(=O)[C@@H](Cc2ccccc2)NC(=O)[C@H](CCN)NC1=O)[C@@H](C)O [SPR741] (HELM PEPTIDE1{[ac].T.[dS].[Dab].[Dab].[dF].L.[Dab].[Dab].T}$PEPTIDE1,PEPTIDE1,4:R3-10:R2$$$V2.0)", "AUC [ng·h/mL]": 78700}

* * *

# assay_details: clinical
# Set-up: species or system human
# condition_details: human, in vivo, iv, 800 mg
Peptide text beside a SMILES is read from it.
quantity_measured: AUC(0-inf)

{"compound": "CC(=O)N[C@H](C(=O)N[C@H](CO)C(=O)N[C@H]1CCNC(=O)[C@H]([C@@H](C)O)NC(=O)[C@H](CCN)NC(=O)[C@H](CCN)NC(=O)[C@H](CC(C)C)NC(=O)[C@@H](Cc2ccccc2)NC(=O)[C@H](CCN)NC1=O)[C@@H](C)O [SPR741] (HELM PEPTIDE1{[ac].T.[dS].[Dab].[Dab].[dF].L.[Dab].[Dab].T}$PEPTIDE1,PEPTIDE1,4:R3-10:R2$$$V2.0)", "quantity_measured": "AUC(0-inf)", "experimental_value": "190 µg·h/mL"}

* * *

# assay_details: clinical
# Set-up: species or system human
# condition_details: human, in vivo, iv, 600 mg
Peptide text beside a SMILES is read from it.

{"molecule": "CC(=O)N[C@H](C(=O)N[C@H](CO)C(=O)N[C@H]1CCNC(=O)[C@H]([C@@H](C)O)NC(=O)[C@H](CCN)NC(=O)[C@H](CCN)NC(=O)[C@H](CC(C)C)NC(=O)[C@@H](Cc2ccccc2)NC(=O)[C@H](CCN)NC1=O)[C@@H](C)O [SPR741] (HELM PEPTIDE1{[ac].T.[dS].[Dab].[Dab].[dF].L.[Dab].[Dab].T}$PEPTIDE1,PEPTIDE1,4:R3-10:R2$$$V2.0)", "Vd, L": 24.6}

* * *

# assay_details: clinical
# Design: species or system human
# condition_details: human, in vivo, iv, 100 mg
Peptide text beside a SMILES is read from it.

{"compound": "CC(=O)N[C@H](C(=O)N[C@H](CO)C(=O)N[C@H]1CCNC(=O)[C@H]([C@@H](C)O)NC(=O)[C@H](CCN)NC(=O)[C@H](CCN)NC(=O)[C@H](CC(C)C)NC(=O)[C@@H](Cc2ccccc2)NC(=O)[C@H](CCN)NC1=O)[C@@H](C)O [SPR741] (HELM PEPTIDE1{[ac].T.[dS].[Dab].[Dab].[dF].L.[Dab].[Dab].T}$PEPTIDE1,PEPTIDE1,4:R3-10:R2$$$V2.0)", "display_unit": "L", "Vd": 20.6}

* * *

# assay_details: clinical
# Parameters: species or system human
# condition_details: human, in vivo, iv, 15 mg
# From the text: The SAD/MAD study was a phase 1, double-blind, placebo-controlled, multicohort trial. Part 1 used a SAD design according to which subjects received a single i.v. dose of SPR741. Part 2 used a MAD design in which subjects received multiple daily i.v. doses of SPR741 over a period of 14 days. The objective was to assess the safety/tolerability and PK of single and multiple ascending doses of SPR741. In the SAD phase, healthy volunteers were screened within 28 days prior to dosing. […]
Peptide text beside a SMILES is read from it.

{"compound": "CC(=O)N[C@H](C(=O)N[C@H](CO)C(=O)N[C@H]1CCNC(=O)[C@H]([C@@H](C)O)NC(=O)[C@H](CCN)NC(=O)[C@H](CCN)NC(=O)[C@H](CC(C)C)NC(=O)[C@@H](Cc2ccccc2)NC(=O)[C@H](CCN)NC1=O)[C@@H](C)O [SPR741] (HELM PEPTIDE1{[ac].T.[dS].[Dab].[Dab].[dF].L.[Dab].[Dab].T}$PEPTIDE1,PEPTIDE1,4:R3-10:R2$$$V2.0)", "clearance": "84 mL/min"}

* * *

# assay_details: clinical
# Design: species or system human
# condition_details: human, in vivo, iv, 50 mg
Peptide text beside a SMILES is read from it.

{"compound": "CC(=O)N[C@H](C(=O)N[C@H](CO)C(=O)N[C@H]1CCNC(=O)[C@H]([C@@H](C)O)NC(=O)[C@H](CCN)NC(=O)[C@H](CCN)NC(=O)[C@H](CC(C)C)NC(=O)[C@@H](Cc2ccccc2)NC(=O)[C@H](CCN)NC1=O)[C@@H](C)O [SPR741] (HELM PEPTIDE1{[ac].T.[dS].[Dab].[Dab].[dF].L.[Dab].[Dab].T}$PEPTIDE1,PEPTIDE1,4:R3-10:R2$$$V2.0)", "display_unit": "L", "Vd": 18.4}

* * *

# assay_details: clinical
# condition_details: human, in vivo, iv, 400 mg, AUC0-inf, geometric LSM, reference treatment
Peptide text beside a SMILES is read from it.

{"compound": "CC(=O)N[C@H](C(=O)N[C@H](CO)C(=O)N[C@H]1CCNC(=O)[C@H]([C@@H](C)O)NC(=O)[C@H](CCN)NC(=O)[C@H](CCN)NC(=O)[C@H](CC(C)C)NC(=O)[C@@H](Cc2ccccc2)NC(=O)[C@H](CCN)NC1=O)[C@@H](C)O [SPR741] (HELM PEPTIDE1{[ac].T.[dS].[Dab].[Dab].[dF].L.[Dab].[Dab].T}$PEPTIDE1,PEPTIDE1,4:R3-10:R2$$$V2.0)", "AUC(0-inf), ng·h/mL": 79300}
